Listing of recorded MIC by entry.
Test system: Enterococcus faecium
experimental-protocol: Antibacterial activity against vancomycin-resistant Enterococcus faecium ATCC 700221 assessed as inhibition of bacterial growth incubated for 24 hrs by broth microdilution method
Type: functional
test-readout: MIC

1) CN1CCc2c([nH]c3ccccc23)C1c1ccc(NC(=O)c2ccc(Br)cc2)cc1 (centres undefined)
> 128 µg/mL
2) Cc1cccc(C(=O)Nc2ccc(C3c4[nH]c5ccccc5c4CCN3C)cc2)c1 (centres undefined)
> 128 µg/mL
3) O=C(Nc1ccc(C2NCCc3c2[nH]c2ccccc32)cc1)c1cccc(C(F)(F)F)c1 (centres undefined)
128 µg/mL
4) CN1CCc2c([nH]c3ccccc23)C1c1ccc(NC(=O)c2ccc([N+](=O)[O-])cc2)cc1 (centres undefined)
> 128 µg/mL
5) Cc1ccccc1C(=O)Nc1ccc(C2NCCc3c2[nH]c2ccccc32)cc1 (centres undefined)
> 128 µg/mL
6) CN1CCc2c([nH]c3ccccc23)C1c1ccc(NC(=O)c2ccc(F)cc2)cc1 (centres undefined)
> 128 µg/mL
7) O=C(Nc1ccc(C2NCCc3c2[nH]c2ccccc32)cc1)c1ccc(F)c(C(F)(F)F)c1 (centres undefined)
> 128 µg/mL
8) COC(=O)c1ccc(C(=O)Nc2ccc(C3c4[nH]c5ccccc5c4CCN3C)cc2)cc1 (centres undefined)
> 128 µg/mL
9) O=C(Nc1ccc(C2NCCc3c2[nH]c2ccccc32)cc1)c1ccc(Br)cc1 (centres undefined)
> 128 µg/mL

* * *

Entries and their measured viability at 24 h follow.
experimental-protocol: Cytotoxicity against human HepG2 cells assessed as cell viability at 32 to 64 ug/ml measured after 24 hrs by MTT assay
Type: toxicity, cell-based
cond: at 32 to 64 µg/mL, dose 32-64 µg/ml, read-out: Activity
test-readout: viability at 24 h

1. O=C(Nc1ccc(C2NCCc3c2[nH]c2ccccc32)cc1)c1ccc(F)cc1 (configuration not stated)
> 95%
2. O=C(Nc1ccc(C2NCCc3c2[nH]c2ccccc32)cc1)c1ccc(C(F)(F)F)cc1 (configuration not stated)
> 95%

* * *

Below, each entry is listed with its recorded MIC.
System: Staphylococcus aureus
experimental-protocol: Antibacterial activity against methicillin resistant Staphylococcus aureus ATCC33591 assessed as inhibition of bacterial growth incubated for 24 hrs by broth microdilution method
Assay type: functional
test-readout: MIC

1. CN1CCc2c([nH]c3ccccc23)C1c1ccc(NC(=O)c2ccc(C(F)(F)F)cc2)cc1 (stereo not given)
8 µg/mL
2. Cc1cccc(C(=O)Nc2ccc(C3c4[nH]c5ccccc5c4CCN3C)cc2)c1 (stereo not given)
64 µg/mL
3. O=C(Nc1ccc(C2NCCc3c2[nH]c2ccccc32)cc1)c1ccc([N+](=O)[O-])cc1 (stereo not given)
4 µg/mL
4. O=C(Nc1ccc(C2NCCc3c2[nH]c2ccccc32)cc1)c1cccc(Cl)c1 (stereo not given)
8 µg/mL
5. O=C(Nc1ccc(C2NCCc3c2[nH]c2ccccc32)cc1)c1ccc(F)cc1 (stereo not given)
4 µg/mL
